# procedureDetails: PSAC antagonists in infected red cells, primary screen, cell-based, P. falciparum Indochina, OD700, 18 h (AID 1157)
# conditionContext: P. falciparum Indochina infected erythrocytes, osmotic lysis OD700, 18 h; higher = more signal, called active from +8 up or from −8 down
The source made the active and inactive calls.
// values below are reported z-score
parameterMeasured: z-score

[[record]]
compound = "[N-]=[N+]=NCc1ccccc1C[C@@]1(C(=O)N2CCOCC2)N=C(c2ccc(OCCCO)cc2)O[C@@H]1c1ccccc1"
experimentalresult = "0.889 (inactive)"

[[record]]
compound = "COCCOC(=O)N1C(=O)[C@@]2(c3cc(C#CC4=CCCCC4)ccc31)[C@H](c1ccc(O)cc1)N1[C@H](c3ccccc3)[C@H](c3ccccc3)OC(=O)[C@H]1[C@@H]2C(=O)N1CCN(c2ncccn2)CC1"
experimentalresult = "0.0164 (inactive)"

[[record]]
compound = "C=CCN1Cc2ccccc2[C@H]2OC(c3ccc(OCCCO)cc3)=N[C@@]2(CC=C)C1=O"
experimentalresult = "6.4 (inactive)"

[[record]]
compound = "CC[C@H]1C2=C3C(CC[C@H]4C(OCc5ccc(F)cc5C(F)(F)F)OC[C@](C)([C@@H]34)N(C(=O)OC(C)(C)C)C2)C(COC)C1COC (stereo partly drawn)"
experimentalresult = "0.297 (inactive)"

[[record]]
compound = "COC(=O)c1nc2oc1CC[C@@H](CO)NC(=O)N(C)Cc1cnnn1C[C@H](Cc1ccccc1)NC2=O"
experimentalresult = "0.409 (inactive)"

[[record]]
compound = "C[C@@H]1ON(c2ccc(C(=O)OC(C)(C)C)cc2)[C@H](c2ccc(O)cc2)[C@H]1C(=O)N1C(=O)OC[C@H]1Cc1ccccc1"
experimentalresult = "0.87 (inactive)"

[[record]]
compound = "CC(C)[Si](C#C[Si](C(C)C)(C(C)C)C(C)C)(O[C@H](C)c1cn([C@H](CO)Cc2ccccc2)nn1)C(C)C"
experimentalresult = "0.359 (inactive)"

[[record]]
compound = "CC(C)C[C@@H]1NC(=O)[C@@H]2C[C@H](C(=O)NCCCCCN)[C@H](c3ccc(O)cc3)N2C1=O"
experimentalresult = "0.0068 (inactive)"

[[record]]
compound = "O=C1OCCC=C[C@H]2OC34C=CCN(Cn5nnc6ccccc65)C(=O)[C@H]3N(CCCCCCO)C(=O)[C@@H]4C12 (stereo partly drawn)"
experimentalresult = "0.748 (inactive)"

[[record]]
compound = "CC(CO)N1C(=O)[C@@H]2[C@H]3C(=O)OCC=C[C@H]3OC23C=CCN(Cc2ccccc2)C(=O)[C@@H]13 (stereo partly drawn)"
experimentalresult = "-1.39 (inactive)"

[[record]]
compound = "COC(=O)c1ccc([C@H](NC(=O)c2ccco2)[C@]2(C)C[C@H]2C2CCCCC2)cc1"
experimentalresult = "1.3 (inactive)"

[[record]]
compound = "CCCC[C@@H]1C[C@H]1[C@@H](NC(=O)Cc1ccccc1)c1ccc(-c2ccccc2)cc1"
experimentalresult = "0.345 (inactive)"

[[record]]
compound = "C=C(COC)/C(=C/C[C@H](OC(C)=O)c1ccc(OCCO)cc1)c1cc(C(=O)OC)ccc1OC"
experimentalresult = "1.14 (inactive)"

[[record]]
compound = "COc1ccc([Si](C)(C)[C@H]2[C@H](CCn3cc([C@H](O)c4ccccc4)nn3)O[C@@]3(C(=O)N(Cc4ccc(N5C(=O)c6cccc7cccc5c67)cc4)c4ccccc43)[C@@H]2C)cc1"
experimentalresult = "0.646 (inactive)"

[[record]]
compound = "Cc1cc(C)c(C(O)C2C=CC3C(=O)N(c4ccccc4)C(=O)C3N2Nc2ccc(C(C)C)cc2)c(C)c1 (stereo not drawn)"
experimentalresult = "1.05 (inactive)"

[[record]]
compound = "COC(=O)[C@@]1(Cc2ccccc2N=[N+]=[N-])N=C(c2ccc(OCCCO)cc2)O[C@H]1c1ccccc1N=[N+]=[N-]"
experimentalresult = "3.93 (inactive)"

[[record]]
compound = "O=C1O[C@@H](c2ccccc2)[C@@H](c2ccccc2)N2[C@@H](c3ccccc3OCCO)[C@]3(C(=O)Nc4ccc(C#CCCO)cc43)[C@@H](C(=O)N3CCCCCCC3)[C@H]12"
experimentalresult = "0.49 (inactive)"

[[record]]
compound = "C=CC1c2cc(O)c(OC)cc2CCN1Cc1cc2c(cc1Br)OCO2 (stereo not drawn)"
experimentalresult = "1.01 (inactive)"


---

# procedureDetails: S. cerevisiae growth modulation with rapamycin, primary screen, strain BY4716, OD600, 96 h (AID 1091); also: test concentration not given here
# conditionContext: higher = more signal, called active from +8 up or from −8 down
// values below are reported z-score
parameterMeasured: z-score

[[record]]
compound = "COc1ccc(CN(C2=CC[C@@]3(C(N)=O)C(=O)C(Cl)=C(Cl)C(=O)[C@@]3(C#N)C2)S(=O)(=O)c2ccc(Br)cc2)cc1"
parametermeasured = "z-score"
experimentalresult = -0.266

[[record]]
compound = "NC(N)=NCCCn1cc(CNC(=O)[C@@H](N)Cc2ccccc2)nn1"
parametermeasured = "z-score"
experimentalresult = -0.933

[[record]]
compound = "NCCCCCNC(=O)[C@@H]1C[C@@H]2C(=O)NCC(=O)N2[C@@H]1c1cccc(OCCO)c1"
parametermeasured = "z-score"
experimentalresult = 0.267

[[record]]
compound = "NCCCCCCNC(=O)[C@@H]1C[C@@H]2C(=O)N[C@@H](CCCCN)C(=O)N2[C@@H]1c1cccc(OCCO)c1"
parametermeasured = "z-score"
experimentalresult = 0.487

[[record]]
compound = "CCCCC=C[C@@H](NC(=O)c1ccc(-c2ccccc2)cc1)c1ccccc1"
parametermeasured = "z-score"
experimentalresult = -0.713

[[record]]
compound = "O=C1O[C@H](c2ccccc2)[C@H](c2ccccc2)N2[C@H]1[C@@H](C(=O)O)[C@]1(C(=O)Nc3ccc(C#CC4=CCCCC4)cc31)[C@H]2c1ccc(O)cc1"
parametermeasured = "z-score"
experimentalresult = -0.776

[[record]]
compound = "C[C@@H]1NC(=O)[C@@]23C(=O)N[C@@H](Cc4ccccc4)C2[C@H](C)[C@@]2(C)O[C@H]2C3/C=C/C/C=C\\CNC(=O)[C@@H]2CCCN2C1=O (stereo partly specified)"
parametermeasured = "z-score"
experimentalresult = -0.524

[[record]]
compound = "COC(=O)C1=CC(CCCO)=CC(C2CC2)N(C)C=C1C(=O)OC (stereo unspecified)"
parametermeasured = "z-score"
experimentalresult = -1.62

[[record]]
compound = "COc1ccc(C(O)C2C=CC3C(=O)N(c4ccccc4)C(=O)C3N2Nc2ccc([N+](=O)[O-])cc2)cc1 (stereo unspecified)"
parametermeasured = "z-score"
experimentalresult = 3.22

[[record]]
compound = "CC1=C([C@H](O)CCc2ccccc2)[C@H](CO)[C@@H]2C(=O)N(C)C(=O)[C@@H]2C1"
parametermeasured = "z-score"
experimentalresult = 0.123

[[record]]
compound = "CCOC(=O)C[C@H]1[C@H](OC(=O)c2ccccc2-c2ccccc2)[C@@H](NC(=O)c2ccc(-c3ccccc3)cc2)c2cc(OCCCO)ccc2N1C(=O)c1ccc2ccccc2n1"
parametermeasured = "z-score"
experimentalresult = 0.723


---

# procedureDetails: small-molecule microarray binders of probe aLefty2, primary screen, biochemical, biotinylated probe, 635/667 nm fluorescence (AID 1094);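 also: score merges spot fluorescence near 667 nm with spot signal-to-noise ratio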
# conditionContext: higher = more signal
true means recorded composite z-score is 0.1 or above; false means it is below 0.1.

[[record]]
compound = "NC(=O)NCC#Cc1ccc2c(c1)[C@]1(C(=O)N2)[C@H](C(=O)NC[C@H](O)c2ccccc2)[C@H]2C(=O)O[C@H](c3ccccc3)[C@H](c3ccccc3)N2[C@@H]1c1ccc(OCCO)cc1"
classname = "true"

[[record]]
compound = "O=C(NCC(F)(F)F)[C@@H]1c2ccccc2C(=O)N(Cc2ccc(OC(F)(F)F)cc2)[C@H]1c1ccc(CO)cc1"
classname = "false"

[[record]]
compound = "CC(CO)N1C(=O)[C@@H]2[C@H]3C(=O)OCC=C[C@H]3OC23C=CCN(CCN2CCOCC2)C(=O)[C@@H]13 (some centres not stated)"
classname = "false"

[[record]]
compound = "C=CC[C@]1(C(=O)O)COC(c2ccc(OCCCO)cc2)=N1"
classname = "false"

[[record]]
compound = "COc1ccccc1CN1C(=O)c2ccccc2[C@@]2(Cc3ccccc3N(CC(F)(F)F)C2=O)[C@@H]1c1ccc(CO)cc1"
classname = "false"

[[record]]
compound = "O=C1N(Cc2ccccc2)c2ccccc2[C@@H]2OC(c3ccc(OCCCO)cc3)=N[C@]12Cc1ccccc1"
classname = "false"

[[record]]
compound = "CCCC[C@@H]1C[C@H]1[C@@H](NC(=O)Cc1ccccc1)c1ccc(-c2ccccc2)cc1"
classname = "false"

[[record]]
compound = "C=CCOC(=O)[C@H]1[C@@H]2C(=O)O[C@@H](c3ccccc3)[C@@H](c3ccccc3)N2[C@@H](c2ccc(OCCOC(=O)[C@H]3C[C@H]4C(=O)N[C@@H](CCCCNC(C)=O)C(=O)N4[C@H]3c3ccc(O)cc3)cc2)[C@]12C(=O)Nc1ccccc12"
classname = "false"

[[record]]
compound = "C[C@@H]1NC(=O)[C@@]23C(=O)N[C@@H](Cc4ccccc4)C2[C@H](C)[C@@]2(C)O[C@H]2C3/C=C/C/C=C\\CNC(=O)[C@@H]2CCCN2C1=O (some centres not stated)"
classname = "false"

[[record]]
compound = "C=CCC(OC(C)=O)[C@@H]1[C@@H](N(Cc2ccc(-c3cccc(C(F)(F)F)c3)o2)C(=O)c2ccc(C)cc2)c2cc(OCCCO)ccc2N1C(=O)c1ccc2ccccc2c1 (some centres not stated)"
classname = "false"

[[record]]
compound = "CN1C(=O)C2C=CC(C(O)C#Cc3ccccc3)N(Nc3ccccc3)C2C1=O (configuration not stated)"
classname = "true"

[[record]]
compound = "CC(C)C(CO)N1C(=O)[C@@H]2C3C(=O)OCCC/C=C\\[C@H]3OC23C=CCN(C(C)(C)C)C(=O)[C@@H]13 (some centres not stated)"
classname = "false"

[[record]]
compound = "CC(C)C(=C=CC[C@H](O)c1cccc(OCCO)c1)C[C@H](O)c1cc(Cl)cc(Cl)c1O"
classname = "false"

[[record]]
compound = "CN(C)C(=O)[C@@]1(Cc2ccccc2CN=[N+]=[N-])N=C(c2ccc(OCCCO)cc2)O[C@H]1c1ccccc1CN=[N+]=[N-]"
classname = "true"

[[record]]
compound = "[N-]=[N+]=NCc1ccccc1[C@H]1OC(c2ccc(OCCCO)cc2)=N[C@@]1(CCS(=O)(=O)c1ccccc1)C(=O)N1CCCCC1"
classname = "true"

[[record]]
compound = "COC(=O)[C@@]1(Cc2ccccc2N=[N+]=[N-])N=C(c2ccc(OCCCO)cc2)O[C@H]1c1ccccc1N=[N+]=[N-]"
classname = "true"

[[record]]
compound = "COc1cc2c(cc1O)C(C)N(Cc1ccc([N+](=O)[O-])o1)CC2 (configuration not stated)"
classname = "true"

